Cited source for all entries: paper PMC12655551

- System under test: recombinant human MAO-B (hMAOB) (Homo sapiens)
- Sequence (P27338 whole entry): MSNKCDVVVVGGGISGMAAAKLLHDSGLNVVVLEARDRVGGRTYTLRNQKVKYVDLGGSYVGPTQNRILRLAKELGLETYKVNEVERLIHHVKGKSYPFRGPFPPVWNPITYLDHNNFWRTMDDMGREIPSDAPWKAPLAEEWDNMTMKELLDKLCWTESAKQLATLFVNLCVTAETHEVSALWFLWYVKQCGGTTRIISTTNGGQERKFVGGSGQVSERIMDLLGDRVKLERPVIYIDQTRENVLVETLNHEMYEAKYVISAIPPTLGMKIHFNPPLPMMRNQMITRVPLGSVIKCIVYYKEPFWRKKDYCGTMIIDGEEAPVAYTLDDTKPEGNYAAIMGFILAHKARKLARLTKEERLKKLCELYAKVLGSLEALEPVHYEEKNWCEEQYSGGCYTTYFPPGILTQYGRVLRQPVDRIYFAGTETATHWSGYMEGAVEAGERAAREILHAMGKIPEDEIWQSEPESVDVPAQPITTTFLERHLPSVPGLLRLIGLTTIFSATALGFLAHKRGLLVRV
- Assay explanation: biochemical
- Experimental parameters: means ± SD of three experiments
- Experimental: Monoamine oxidase (MAO) activity for both recombinant human MAO-A (hMAOA) and MAO-B (hMAOB) was assessed using a fluorometric assay based on the Amplex® UltraRed reagent. […] As this enzymatic reaction proceeded continuously, the fluorescence signal was recorded every 30 min (at 0, 30, 60, 90, 120, and 150 min) to track enzymatic kinetics.
Property name: IC50 (nM)
Kindly answer with a numeric value in nM, unit omitted.

Observe how each entry below is paired with its result.
Compound	IC50, nM
Cc1ccc(C)n1-c1ccncc1	510
Cc1ccc(C)n1-c1ccc(C(=O)NCC(=O)O)cc1	590
Cc1ccc(C)n1-c1ccccc1Br	560

Specify measured IC50 for Cc1ccc(C)n1C(Cc1ccc(O)cc1)C(=O)O (stereo not shown) .
620

Specify measured IC50 for "Cc1ccc(C)n1CCc1ccccc1" .
490

Specify measured IC50 for "Cc1ccc(C)n1C(C)(C)CO" .
460

Specify measured IC50 for "Cc1ccc(C)n1CCN1CCOCC1" .
470
